These measurements were taken from ChEMBL document CHEMBL5143616.

- procedure.details: Stability in human plasma incubated for 6 hrs in presence of NADPH and measured by LC-MS/MS analysis
- Format: ADME, cell-free
- stated.conditions: read-out: Stability
quantity.name: remaining at 6 h (%)

// returns reported remaining at 6 h for input COc1cc(OCc2cccc(-c3ccccc3)c2C)cc(OC)c1CNCCCCCCC(=O)NO
97

// returns reported remaining at 6 h for input O=C(CCCCCCC(=O)Nc1ccccc1)NO
77

====

- procedure.details: Stability in human liver microsomes assessed as clearance and measured by LC-MS/MS analysis
- Format: ADME, Microsome
- stated.conditions: read-out: CLH
quantity.name: microsomal CLint (µL/min/mg)

P = O=C(CCCCCCC(=O)Nc1ccccc1)NO
Q = COc1cc(OCc2cccc(-c3ccccc3)c2C)cc(OC)c1CNCCCCCCC(=O)NO
Given P and Q , report the one with the higher recorded microsomal CLint. In your reply, give the label of the chosen option.
Q
(Q: 34.1 µL/min/mg, P: 4.02 µL/min/mg)

====

- procedure.details: Stability in mouse liver microsomes assessed as half-life and measured by LC-MS/MS analysis
- Type: ADME, Microsome
- stated.conditions: liver microsomes
quantity.name: half-life (h)
Unit h implied. Number only.

// returns reported half-life for input COc1cc(OCc2cccc(-c3ccccc3)c2C)cc(OC)c1CNCCCCCCC(=O)NO
1.13

====

- procedure.details: Stability in human liver microsomes assessed as half-life and measured by LC-MS/MS analysis
- Format: ADME, Microsome
quantity.name: half-life (h)

1 = O=C(CCCCCCC(=O)Nc1ccccc1)NO [VORINOSTAT]
2 = COc1cc(OCc2cccc(-c3ccccc3)c2C)cc(OC)c1CNCCCCCCC(=O)NO
Given 1 and 2 , report the one with the higher recorded half-life. In your reply, give the label of the chosen option.
1

====

- system: UniProt:Q92769
- Sequence (Q92769 whole entry): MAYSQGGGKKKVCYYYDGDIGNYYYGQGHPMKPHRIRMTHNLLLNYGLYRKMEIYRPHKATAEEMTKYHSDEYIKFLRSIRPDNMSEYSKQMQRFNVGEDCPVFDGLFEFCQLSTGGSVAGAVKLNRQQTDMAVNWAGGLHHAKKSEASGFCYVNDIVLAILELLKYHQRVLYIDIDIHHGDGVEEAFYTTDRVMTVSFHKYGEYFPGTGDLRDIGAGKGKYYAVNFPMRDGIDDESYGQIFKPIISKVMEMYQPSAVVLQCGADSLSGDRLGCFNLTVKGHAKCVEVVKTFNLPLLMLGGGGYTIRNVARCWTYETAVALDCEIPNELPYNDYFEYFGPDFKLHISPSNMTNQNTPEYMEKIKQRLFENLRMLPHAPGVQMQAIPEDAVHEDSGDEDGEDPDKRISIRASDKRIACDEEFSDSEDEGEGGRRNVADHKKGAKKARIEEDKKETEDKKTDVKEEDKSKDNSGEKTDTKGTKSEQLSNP
quantity.name: pIC50
Convention used: pIC50 is expressed as -log10 of the molar concentration.

// returns reported pIC50 for input COc1cc(OCc2cccc(-c3ccccc3)c2C)cc(OC)c1CNCCCCCCC(=O)NO
6.76

====

- system: Histone deacetylase 3 (Homo sapiens)
- Sequence (O15379 whole entry): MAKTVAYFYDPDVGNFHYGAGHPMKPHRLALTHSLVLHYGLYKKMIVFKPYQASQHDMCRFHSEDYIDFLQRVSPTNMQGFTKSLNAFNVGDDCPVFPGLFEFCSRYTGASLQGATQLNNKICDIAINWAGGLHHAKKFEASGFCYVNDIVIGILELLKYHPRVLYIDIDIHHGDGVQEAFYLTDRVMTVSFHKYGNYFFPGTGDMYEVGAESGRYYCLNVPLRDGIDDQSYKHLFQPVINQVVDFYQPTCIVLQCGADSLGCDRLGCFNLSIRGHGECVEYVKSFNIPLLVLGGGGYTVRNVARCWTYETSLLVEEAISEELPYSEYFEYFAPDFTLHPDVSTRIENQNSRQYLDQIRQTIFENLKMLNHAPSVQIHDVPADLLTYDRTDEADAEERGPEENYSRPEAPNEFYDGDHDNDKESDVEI
quantity.name: pIC50
Convention used: pIC50 is expressed as -log10 of the molar concentration.

Give pIC50 (Histone deacetylase 3 (Homo sapiens)) of the following compound: COc1cc(OCc2cccc(-c3ccccc3)c2C)cc(OC)c1CNCCCCCCC(=O)NO
7.34

====

- procedure.details: Stability in mouse liver microsomes assessed as clearance and measured by LC-MS/MS analysis
- Format: ADME, Microsome
- stated.conditions: read-out: CLH
quantity.name: microsomal CLint (µL/min/mg)

A = COc1cc(OCc2cccc(-c3ccccc3)c2C)cc(OC)c1CNCCCCCCC(=O)NO
B = O=C(CCCCCCC(=O)Nc1ccccc1)NO [VORINOSTAT]
Given A and B , report the one with the higher recorded microsomal CLint. In your reply, give the label of the chosen option.
A
(A: 20.4 µL/min/mg, B: 2.04 µL/min/mg)
